# Tested on: PC-3 prostate
# experiment_description: NCI-60 one-dose screen, 48 h
# condition_context: 10 µM unless noted
The panel holds about 83,000 compounds, 20% with a hit somewhere; the sample as a whole holds those more often. The source made the active and inactive calls. How the source made its calls: active means growth percent below 10; inactive means the rest.
Labels: true = active, false = inactive

CC1=C([Se]CC(OC(=O)CC[Se]c2ccccc2)C(=O)NC(C)(C)C)C(=O)c2ccccc2C1=O (stereo unspecified) | true
CCC1=C[C@@H]2C[C@]3(C(=O)OC)c4[nH]c5ccccc5c4CC[N@+](CC(=O)Nc4cc5c(cc4OC)N(C)[C@H]4[C@@](O)(C(=O)OC)[C@H](OC(C)=O)[C@]6(CC)C=CCN7CC[C@]54[C@@H]76)(C2)[C@H]13 | false
COC12C=C/C(=C(/C(=O)OCc3ccncc3)C(=O)CCCCCCCCC3(OC)C=C/C(=C(/C(=O)OCc4ccncc4)C(=O)CCCCCCCC1)O3)O2 | true
CS(=O)(=O)c1ccc(-c2cnn3ccc(-c4cccc(S(=O)(=O)C5CC5)c4)nc23)cc1 | false
CCCCNC(=O)CC1=C(C)/C(=C/c2[nH]c(-c3ccc[nH]3)cc2OC)N=C1C | true
Cc1nc2sc(C(=O)Nc3cccc4ccccc34)c(N)c2cc1C(O)c1ccccc1 (stereo unspecified) | false
COc1cc(C2c3cc(OC(C)=O)c(OC)cc3CC3C(=O)OCC32)ccc1OC(C)=O (stereo unspecified) | false
O=C1/C(=C/c2ccccc2Br)COc2ccc(O)cc21 | false
CC(=O)N1N=C(c2ccc(Nc3nc(Nc4ccccc4)nc(Nc4ccccc4)n3)cc2)CC1c1ccccc1 (stereo unspecified) | false
CCOC(=O)C1=C(C)NC(=O)NC1c1c(Cl)n(CCCl)c2ccccc12 (stereo unspecified) | false
COC1=CC(c2ccc[nH]2)=N/C1=C\c1[nH]c(C)c(CC(=O)NCc2ccccc2)c1C | false
O=C1C(=O)N(Cc2ccc(-c3ccccc3)cc2)c2ccc(OC(F)(F)F)cc21 | false
CN(C)CC(C)(C)C(=O)/C=C/c1ccccc1 | true
COc1ccc(/C=N/NC(=O)c2ccc(-n3cc(-c4ccccc4)nn3)cc2)cc1OC | false
CSc1nc2ccccc2cc1/C=C1/C=C(c2ccccc2)NC1=O | false
CCOC(=O)c1cc2c(n1C)-c1nc(NC(C)=O)sc1CCC2 | false
CCN1C(=O)N(CC)C2C1NN=c1s/c(=C\c3ccccc3F)c(=O)n12 (stereo unspecified) | false
O=C1c2c(c3c4ccccc4[nH]c3c3ccc4ccccc4c23)C(=O)N1CCN1CCNCC1 | false
COc1ccc(Nc2nnc(-c3ccc(OC)c(OC)c3)o2)cc1 | false
CC1=C2[C@@H](CC1)[C@]1(C)O[C@@](C(C)C)(C[C@H]1OC(=O)[C@H](C)O)[C@H]2OC(=O)/C=C/c1ccccc1 | false
O=C(c1nn(-c2ccccc2)c2c1CC(NCc1ccc(F)cc1)CC2)N1CCCCC1 (stereo unspecified) | false
COc1ccc(C(=O)N2c3ccccc3Sc3ccccc32)c(OC)c1 | false
COc1ccc(-c2cc(-c3ccc(Cl)cc3)c(C#N)c(=O)n2Cc2ccc(C(=O)Nc3ccccc3N)cc2)cc1 | false
COc1cccc(/C=C2\COc3ccc(O)c(O)c3C2=O)c1 | true
CCCC/C(CC)=N\NS(=O)(=O)c1ccc([N+](=O)[O-])cc1 | false
CCCCCCCCCCCCCCCCCCOc1ccccc1CC(=O)OCC[N+](C)(C)C | true
CC1OC(n2c3ccccc3c3c4c(c5c6ccccc6[nH]c5c32)C(=O)N(CCN2CCCC2)C4=O)CC(O)C1O (stereo unspecified) | false
CCSC(SCC)c1ccc(Cl)cc1 | false
COc1ccc(\C=N/N=C(N)/C(N)=N\N=C/c2ccc(OC)cc2)cc1 | false
c1cnc2c(-c3nc4ccc5[nH]ncc5c4c4c3CCCC4)c[nH]c2c1 | false
C#CCNC(=O)[C@H](CC)[C@H]1CC[C@H](C)[C@H]([C@@H](C)[C@H](O)[C@H](C)C(=O)[C@H](CC)C2O[C@]3(C=CC(=O)[C@]4(CC[C@@](C)([C@H]5CC[C@](O)(CC)[C@H](C)O5)O4)O3)[C@H](C)C[C@@H]2C)O1 (stereo partly specified) | false
COc1ccc(OC)c(/C=N/Nc2ncnc3c2c(C)nn3C)c1 | false
Nc1n[nH]c2ccc([C@H]3[C@@H]4C5CCC(C5)[C@@H]4c4c(ccc5[nH]ncc45)N3S(=O)(=O)C3CC3)cc12 (stereo partly specified) | false
C=CCn1c(C)nc2ccc(Nc3nc(Nc4ccc5nc(C)n(CC=C)c5c4)c4ccccc4n3)cc21 | true
Nc1ncnc2c1c(-c1cccc(Cl)c1)nn2CC(=O)N1CCOCC1 | false
Nc1ncnc2c1C(c1ccccc1)c1ccc3ccccc3c1O2 (stereo unspecified) | false

Numbers sourced from PubChem BioAssay (NCI).
